B1: MMP1 (parent)
chain: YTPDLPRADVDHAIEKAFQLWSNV

Variants of: B1
measurement_notes: protein stability index of a GFP-peptide fusion (GPS, HEK-293T) (PSI 1-6); higher = more stable;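 note: lentivirally expressed fusions sorted by FACS into six bins by GFP to DsRed ratio, PSI derived from sequencing read proportions per bin multiplied by bin number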
run_parameters: c terminus: a fixed tail appended
protein stability index below 2 gives false; protein stability index at or above it gives true.

A13P: false
Y1S: true
E15K: false
Y1I: true
D11H: true

Textbook exercise: given the entry H12A , state whether its protein stability index is greater than or equal to 2.
true

Textbook exercise: given the entry P3I , state whether its protein stability index is greater than or equal to 2.
false

protein stability index >= 2 for Q19I ?
true

Hi team, for Q19A , is the recorded protein stability index at or above 2?
false

Does A13H have a reported protein stability index of at least 2?
true

// inclusive: protein stability index at least 2? input: I14C
true

Threshold query (protein stability index >= 2) on A13F
false

For this variant, is measured protein stability index 2 or higher? N23G
true

Given the entry Q19K , answer whether its protein stability index meets or surpasses 2.
false

Is protein stability index at least 2? Consider D11P
true

Is the recorded value of protein stability index equal to or greater than 2 for this variant? A17Y
false

Entry P3Y : is its protein stability index no less than 2?
false

Has A17I a recorded protein stability index greater than or equal to 2?
true
